target: Adenosine receptor A1 (Homo sapiens); test: Displacement of [3H]DPCPX from human adenosine A1 receptor expressed in CHO cells at 10 uM after 120 mins by scintillation counting
Quantity: inhibition
Field: value (include unit after the number)

* COc1ccc2c(c1)cc1n2CCN(Cc2csc(N)c2C(=O)c2ccc(Cl)cc2)C1 | 1%
* Cc1ccc(OCc2csc(N)c2C(=O)c2ccc(Cl)cc2)cc1 | 5%
* CN(Cc1ccccc1)Cc1c(-c2ccccc2)sc(N)c1C(=O)c1ccc(Cl)cc1 | 1%

Hi team, please reply with inhibition for each item in this list.
1. Nc1sc(-c2ccccc2)c(CN2CCCCC2)c1C(=O)c1ccc(Cl)cc1
2. CCCN(CCC)Cc1csc(N)c1C(=O)c1ccc(Cl)cc1

### Response
1%
4%

// each listed molecule needs a value for inhibition
1. Cc1ccc2c(c1)CC1CN(Cc3csc(N)c3C(=O)c3ccc(Cl)cc3)CCN21 (stereo not drawn)
2. Nc1scc(CSc2ccccc2)c1C(=O)c1ccc(Cl)cc1
3. CCCN(CCC)Cc1c(-c2ccccc2)sc(N)c1C(=O)c1ccc(Cl)cc1
4. Nc1scc(CN2CCn3c(cc4ccccc43)C2)c1C(=O)c1ccc(Cl)cc1
5. Nc1scc(COc2ccccc2)c1C(=O)c1ccc(Cl)cc1
6. Cc1ccc2c(c1)OC1(CCN(Cc3csc(N)c3C(=O)c3ccc(Cl)cc3)CC1)O2

### Response
["6%", "1%", "1%", "3%", "1%", "0%"]

Fill in inhibition for each of the 7 molecules listed.
1. Cc1cccc2c1OC1(CCN(Cc3csc(N)c3C(=O)c3ccc(Cl)cc3)CC1)O2
2. CCN(CC)Cc1c(-c2ccccc2)sc(N)c1C(=O)c1ccc(Cl)cc1
3. C=CCN(CC=C)Cc1c(Br)sc(N)c1C(=O)c1ccc(Cl)cc1
4. Nc1scc(CN2CCn3c(cc4cc(F)ccc43)C2)c1C(=O)c1ccc(Cl)cc1
5. CN(Cc1ccccc1)Cc1csc(N)c1C(=O)c1ccc(Cl)cc1
6. Nc1scc(CN2CCc3[nH]c4ccccc4c3C2)c1C(=O)c1ccc(Cl)cc1
7. CN(C)Cc1c(-c2ccccc2)sc(N)c1C(=O)c1ccc(Cl)cc1

### Response
["2%", "1%", "6%", "0%", "1%", "0%", "1%"]
